Below: a set of entries, each annotated with reported inhibition at 3.1 µM.
- test.system: Human G9a (Homo sapiens)
- Sequence (Q96KQ7 786-1210 limits assumed): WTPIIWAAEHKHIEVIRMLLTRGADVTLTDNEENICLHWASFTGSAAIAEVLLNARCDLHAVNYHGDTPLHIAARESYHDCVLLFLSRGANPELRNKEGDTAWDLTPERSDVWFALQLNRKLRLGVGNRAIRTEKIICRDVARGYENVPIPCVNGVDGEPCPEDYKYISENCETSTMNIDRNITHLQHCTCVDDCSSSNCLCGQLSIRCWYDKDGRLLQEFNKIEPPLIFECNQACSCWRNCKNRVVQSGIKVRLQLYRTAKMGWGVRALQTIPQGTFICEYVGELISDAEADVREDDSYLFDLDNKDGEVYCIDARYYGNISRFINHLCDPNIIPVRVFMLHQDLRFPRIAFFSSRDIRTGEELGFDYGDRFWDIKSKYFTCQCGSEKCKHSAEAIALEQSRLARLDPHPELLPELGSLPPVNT
- experiment.description: G9a assay (3H-AdoMet filter-binding)
- Format: biochemical
- measurement.context: 3.1 μM
Enter your answer as a number in %; do not include the unit.

Guide cases for inhibition at 3.1 µM, answers given:
c1ccc(CN2CCC(Nc3nc(N4CCN(c5ccccn5)CC4)nc4ccccc34)CC2)cc1
11
c1ccc(CN2CCC(Nc3nc(N4CCN(c5ccccc5)CC4)nc4ccccc34)CC2)cc1
0
CN1CCCN(c2nc(NC3CCN(Cc4ccccc4)CC3)c3ccccc3n2)CC1
1.9

Read the next record carefully.
**Query** Hi! What's the reported inhibition at 3.1 µM for "c1ccc(CN2CCC(Nc3nc(N4CCCC4)nc4ccccc34)CC2)cc1" on Human G9a (Homo sapiens)?
**Result** 14.7
